Cited source for all entries: paper PMC8562773

molecular target: human Na+/taurocholate cotransporting polypeptide (NTCP) (Homo sapiens, UniProt Q14973); construct: containing the human NTCP open reading frame with a C-terminal 6-His tag; experiment: Inhibition of NTCP-mediated [3H]-taurocholate uptake in NTCP-expressing HEK293 cells; settings: 1 μM [3H]-taurocholate; 1 min, 37 °C, sodium-containing buffer; 3 independent experiments
Sequence (Q14973 whole entry): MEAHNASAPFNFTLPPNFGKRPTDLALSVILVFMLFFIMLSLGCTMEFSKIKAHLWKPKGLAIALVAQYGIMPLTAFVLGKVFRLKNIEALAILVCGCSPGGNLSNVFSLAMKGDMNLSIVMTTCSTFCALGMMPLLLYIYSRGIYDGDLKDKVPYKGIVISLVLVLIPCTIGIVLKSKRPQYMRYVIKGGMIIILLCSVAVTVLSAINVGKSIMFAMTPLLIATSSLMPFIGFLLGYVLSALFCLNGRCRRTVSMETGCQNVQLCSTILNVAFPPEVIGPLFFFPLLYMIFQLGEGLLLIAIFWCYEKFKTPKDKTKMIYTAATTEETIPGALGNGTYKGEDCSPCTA
pIC50: −log10 of the molar value.
Measured pIC50, listed per entry for reference.
quantity-name: pIC50

compound	quantity-name	observed-result
O=C(O)C(F)(F)C(F)(F)C(F)(F)C(F)(F)C(F)(F)C(F)(F)C(F)(F)F [PFOA, perfluorooctanoic acid]	pIC50	4.55
O=C(O)C(F)(F)C(F)(F)C(F)(F)C(F)(F)C(F)(F)C(F)(F)C(F)(F)C(F)(F)F [PFNA, perfluorononanoic acid]	pIC50	5.12
O=C(O)C(F)(F)C(F)(F)C(F)(F)C(F)(F)C(F)(F)C(F)(F)C(F)(F)C(F)(F)C(F)(F)F [PFDA, Perfluorodecanoic acid]	pIC50	5.02
